- Measured On: SST2 (Homo sapiens)
- Construct: host or cells: PathHunter CHO-K1 SST2 cells
- Sequence (P30874 whole entry): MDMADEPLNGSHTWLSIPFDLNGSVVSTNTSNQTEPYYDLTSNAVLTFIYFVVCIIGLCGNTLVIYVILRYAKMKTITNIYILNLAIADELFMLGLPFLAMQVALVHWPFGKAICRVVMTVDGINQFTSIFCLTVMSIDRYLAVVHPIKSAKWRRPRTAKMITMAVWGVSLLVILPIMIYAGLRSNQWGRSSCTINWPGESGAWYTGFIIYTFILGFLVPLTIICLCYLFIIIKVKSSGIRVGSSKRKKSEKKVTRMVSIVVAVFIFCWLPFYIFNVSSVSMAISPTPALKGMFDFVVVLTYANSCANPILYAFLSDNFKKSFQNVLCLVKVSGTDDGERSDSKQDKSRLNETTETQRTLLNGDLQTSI
- Test Summary: PathHunter CHO-K1 SST2 internalization assay
- Type: cell-based
- Measurement Context: PathHunter CHO-K1 SST2, 90 min; read-out: Internalization EC50
Starred links: 1 amine or outer side, 2 acyl side, 3 side chain; linkers in the order of their positions; H or OH if unused. Non-standard residues stand in square brackets, D forms with d. Residues, ends and D or L forms follow the SMILES beside them. *: point of attachment. X1 = Cc1cc(F)cc(-c2cnc(NCCNC(=O)CCOCCC(=O)*)c(-c3nc4ccc(Cl)cc4[nH]3)c2N2CCC(N)CC2)c1; X3 = Cc1cc(F)cc(-c2cnc(NCCN*)c(-c3nc4ccc(Cl)cc4[nH]3)c2N2CCC(N)CC2)c1; Dolaproine = CO[C@@H]([C@@H]1CCCN1)[C@@H](C)C(=O)O; Dil = CC[C@H](C)[C@H](NC)[C@@H](CC(=O)O)OC; PABC = O=C(OCc1ccc(N[*:1])cc1)[*:2]; Glutaryl = O=C(CCCC(=O)[*:2])[*:1]; X2 = C[C@@H](N*)[C@@H](O)c1ccccc1; Cit = NC(=O)NCCC[C@H](N)C(=O)O; NMeV = CN[C@H](C(=O)O)C(C)C; Sar = CNCC(=O)O

Compound: CC[C@H](C)[C@@H]([C@@H](CC(=O)N1CCC[C@H]1[C@H](OC)[C@@H](C)C(=O)N[C@H](C)[C@@H](O)c1ccccc1)OC)N(C)C(=O)[C@@H](NC(=O)[C@H](C(C)C)N(C)C(=O)OCc1ccc(NC(=O)[C@H](CCCNC(N)=O)NC(=O)[C@@H](NC(=O)CCCC(=O)N(C)CC(=O)N(C)CC(=O)N(C)CC(=O)NCCNc2ncc(-c3cc(C)cc(F)c3)c(N3CCC(N)CC3)c2-c2nc3ccc(Cl)cc3[nH]2)C(C)C)cc1)C(C)C [Compound 96] ({X3-Sar-Sar-Sar-Glutaryl}-V[Cit][PABC][NMeV]V[Dil][Dolaproine]-X2)
EC50 / nM: 4.9
//
Compound: CC[C@H](C)[C@@H]([C@@H](CC(=O)N1CCC[C@H]1[C@H](OC)[C@@H](C)C(=O)N[C@H](C)[C@@H](O)c1ccccc1)OC)N(C)C(=O)[C@@H](NC(=O)[C@H](C(C)C)N(C)C(=O)OCc1ccc(NC(=O)[C@H](C)NC(=O)[C@@H](NC(=O)CCOCCNCCC(=O)NCCNc2ncc(-c3cc(C)cc(F)c3)c(N3CCC(N)CC3)c2-c2nc3ccc(Cl)cc3[nH]2)C(C)C)c(O[C@@H]2O[C@H](C(=O)O)[C@@H](O)[C@H](O)[C@H]2O)c1)C(C)C
EC50 / nM: 25
//
Compound: CC[C@H](C)[C@@H]([C@@H](CC(=O)N1CCC[C@H]1[C@H](OC)[C@@H](C)C(=O)N[C@H](C)[C@@H](O)c1ccccc1)OC)N(C)C(=O)[C@@H](NC(=O)[C@H](C(C)C)N(C)C(=O)OCc1ccc(NC(=O)[C@H](CCCNC(N)=O)NC(=O)[C@@H](NC(=O)[C@@H](CS(=O)(=O)O)NC(=O)CCOCCC(=O)NCCNc2ncc(-c3cc(C)cc(F)c3)c(N3CCC(N)CC3)c2-c2nc3ccc(Cl)cc3[nH]2)C(C)C)cc1C(=O)NCCN)C(C)C
EC50 / nM: 2.2
//
Compound: CC[C@H](C)[C@@H]([C@@H](CC(=O)N1CCC[C@H]1[C@H](OC)[C@@H](C)C(=O)N[C@H](C)[C@@H](O)c1ccccc1)OC)N(C)C(=O)[C@@H](NC(=O)[C@H](C(C)C)N(C)C(=O)OCc1ccc(NC(=O)[C@H](CCCNC(N)=O)NC(=O)[C@@H](NC(=O)[C@H](CCC(N)=O)NC(=O)CCOCCC(=O)NCCNc2ncc(-c3cc(C)cc(F)c3)c(N3CCC(N)CC3)c2-c2nc3ccc(Cl)cc3[nH]2)C(C)C)cc1)C(C)C [Compound 56] (X1-QV[Cit][PABC][NMeV]V[Dil][Dolaproine]-X2)
EC50 / nM: 15.1

// provenance: patent US12134610B2
